- procedure_details: Plasma clearance in po dosed C57BL/6 mouse assessed as half life administered as single dose
- Format: ADME, organism-based
metric: half-life

Enquiry: Find the recorded half-life belonging to Nc1nonc1/C(=N/O)Nc1ccc(F)c(Cl)c1 and report it.
Return: < 30 min

###

- procedure_details: Plasma concentration in C57BL/6 xenografted with GM-CSF expressing mouse B16 cells mouse at 25 mg/kg, sc BID for 14 days after 1 hr by LC/MS/MS analysis
- Type: ADME, organism-based
- Set-up: dose 25 mg/kg, route subcutaneous
- experimental_parameters: C57BL/6, mouse
metric: concentration at 1 h
Please format your answer as a value with the unit trailing.

Enquiry: Find the recorded concentration at 1 h belonging to Nc1nonc1/C(=N/O)Nc1ccc(F)c(Cl)c1 and report it.
Return: 8.9 µM

###

- procedure_details: Permeability across human Caco-2 cells
- Assay type: ADME, cell-based
- experimental_parameters: read-out: permeability
metric: Papp (×10⁻⁶ cm/s)
Numbers only, in ×10⁻⁶ cm/s.

INSERT INTO assay_data (cpd_smiles, numeric_readout) VALUES
  ('Nc1nonc1/C(=N/O)Nc1ccc(F)c(Cl)c1', 36);

--- query ---
Enquiry: Find the recorded Papp belonging to Nc1nonc1C(=NCc1ccccc1)NO and report it.
Return: 39

###

- procedure_details: Plasma concentration in C57BL/6 mouse at 100 mg/kg, sc administered as single dose after […] by LC/MS/MS analysis
- Assay type: ADME, organism-based
- Parameters: dose 100 mg/kg, route subcutaneous
metric: concentration at […] (µM)
One number for each entry, in µM.

Enquiry: Find the recorded concentration at […] belonging to Nc1nonc1/C(=N/O)Nc1ccc(F)c(Cl)c1 and report it.
Return: 2.5

###

- procedure_details: Plasma concentration in C57BL/6 xenografted with GM-CSF expressing mouse B16 cells mouse at 50 mg/kg, sc BID for 14 days after 1 hr by LC/MS/MS analysis
- Format: ADME, organism-based
- Set-up: dose 50 mg/kg, route subcutaneous
- experimental_parameters: C57BL/6, mouse
metric: concentration at 1 h

Enquiry: Find the recorded concentration at 1 h belonging to Nc1nonc1/C(=N/O)Nc1ccc(F)c(Cl)c1 and report it.
Return: 12 µM
